This section lists pIC50 readings for ROCK2 (Homo sapiens (Human), UniProt O75116).
One number for each entry, as −log10 of the molar value.

Can you give me pIC50 for all of these, one by one?
1. COc1ccc(C(=O)N[C@H]2C[C@]3(C2)C[C@H](Oc2nc4c(cc2C(N)=O)COCC4)C3)cc1C#N (stereo partly shown)
2. NC(=O)c1sc(C2CC2)nc1O[C@H]1C[C@@]2(C[C@H](NC(=O)c3cnn4cc(OCC(O)(C(F)(F)F)C(F)(F)F)ccc34)C2)C1 (stereo partly shown)
3. NC(=O)c1cn(C(F)F)nc1O[C@H]1C[C@@]2(C[C@H](NC(=O)c3cnn4cc(OCC(F)(F)F)ccc34)C2)C1 (stereo partly shown)
4. NC(=O)c1cn(C2CC2)nc1O[C@H]1C[C@@]2(C[C@H](NC(=O)c3cnn4cc(OCC(F)F)ccc34)C2)C1 (stereo partly shown)
5. NC(=O)c1cc2sccc2nc1OC1CC2(CC(NC(=O)C3CC(=O)N(Cc4ccc(Cl)cc4)C3)C2)C1 (single isomer, unassigned)
6. NC(=O)c1cc2c(nc1O[C@H]1C[C@]3(C1)C[C@H](N1C(=O)CN(Cc4ccccc4)CC1=O)C3)CCOC2 (stereo partly shown)
7. NC(=O)c1cc2c(nc1O[C@H]1C[C@@]3(C[C@H](NC(=O)c4cnc5ccc(F)cc5c4)C3)C1)CCOC2 (stereo partly shown)
8. CC(C)(O)COc1ccc2c(C(=O)N[C@H]3C[C@]4(C3)C[C@H](Oc3nn(-c5ccccc5)cc3C(N)=O)C4)cnn2c1C1CC1 (stereo partly shown)

Completion:
1: 6.94; 2: 7.26; 3: 7.66; 4: 7.80; 5: 5.63; 6: 6.24; 7: 7.44; 8: 7.90
